Experiment: folding stability dG unfold from trypsin proteolysis; higher = more stable
Field: folding stability dG unfold. Provide a value for each of the sequences that follow.
Give bare numbers, in kcal/mol.

1. SAGGSAGGSSPSTSSERRIELPGGEEAEVFFYPSSGKILVRFPDREVEYYVEDDGKIVKKDPLSAGGSAGGS [r12_47_JUSTAS]	0.478
2. SAGGSAGGSGSTVVEVEFPDARIVITVEPPGVLTVTVERPPFPVETVRLPDMTVEEAVAYALASAGGSAGGS [r20_8_JUSTAS]	1.76

Respectfully, I request folding stability dG unfold for each entry included below.
1. SAGKIEITVKPDGTVIIKVTVEVDGKKLELTIEVPPEMTIEEIIEKLKELAEELGVEKVEVEIVPLPPSAGG [r19_31_TrROS_Hall]
2. SAGGSAGGSAGGSVTSTSSVGSSPGSTTTLTYPEKPLYVTVYTELKDDPTVVTTETFPLLSAGGSAGGSAGG [r7_509_JUSTAS]

Result ::
[3.9, 1.22]

Respectfully, I request folding stability dG unfold for each entry included below.
1. SAGGSAGGSAGGVKPGDFVLIKLTLTEKYYDPETGELIEEKEVELTILIPKGTSLEELKLSAGGSAGGSAGG [r7_591_TrROS_Hall]
2. SAGGMLTYTTEYDPRGVLTVREYDPSTSKPISTHIIELGPEPVPPPVPGFPQVTPSGELRLVEDPAGPSAGG [r13_9_JUSTAS]
3. SAGGKKTVKIEIVLPKEELEELLKKLLEEAKKKGLKVEVKVELKEVEVEVNGKKKKVLVLKVEIKVEPSAGG [r13_974_TrROS_Hall]

Result ::
1: 2.3; 2: -0.178; 3: 3.17

Respectfully, I request folding stability dG unfold for each entry included below.
1. SAKLAKELAEELAKEILPKFPNIKAVKVEVEPLGDYAIATIIWEKENGKPIISKAIIEKNKKILKVDISSAG [r14_719_TrMRF]
2. SAGGSAGGSAEPPEPEVVAVTVEITEEDGELTITVTNEDTGEKYTFTLKNVEVKPGDTLLIRSAGGSAGGSA [r18_89_TrROS_Hall]
3. SAGGSAGGSAGGSMSSSSSPLPDEDGLVTRGKSSEPSPPFTWTTTVDSSGVPSTTVTSLESAGGSAGGSAGG [r7_187_JUSTAS]
4. SEEVEIEIRIRVEVDSLEEARALAEALEELGFEVEVKVVERDGKLVVEVTIRIRVPAPPPPPLSEEELKASA [r9_863_TrROS_Hall]
5. SAGGSAGGSATKTIKVKNADGETVELTVEKREDGSYKITLTFPDGTKKTFTIKPGEKIVIKPSAGGSAGGSA [r18_115_TrROS_Hall]
6. SAKITFIAPGGKPIVIDIDPNYEVIEVIEFPELGVVLILLRNPETGELYAILITPPDYRPTYIELIPLDSAG [r14_311_TrMRF]

Result ::
1: 1.02; 2: 0.402; 3: -0.484; 4: 2.49; 5: 2.42; 6: 3.43
